Target: kappa opioid receptor (KOR) (Homo sapiens, UniProt P41145)
Sequence (P41145 whole entry): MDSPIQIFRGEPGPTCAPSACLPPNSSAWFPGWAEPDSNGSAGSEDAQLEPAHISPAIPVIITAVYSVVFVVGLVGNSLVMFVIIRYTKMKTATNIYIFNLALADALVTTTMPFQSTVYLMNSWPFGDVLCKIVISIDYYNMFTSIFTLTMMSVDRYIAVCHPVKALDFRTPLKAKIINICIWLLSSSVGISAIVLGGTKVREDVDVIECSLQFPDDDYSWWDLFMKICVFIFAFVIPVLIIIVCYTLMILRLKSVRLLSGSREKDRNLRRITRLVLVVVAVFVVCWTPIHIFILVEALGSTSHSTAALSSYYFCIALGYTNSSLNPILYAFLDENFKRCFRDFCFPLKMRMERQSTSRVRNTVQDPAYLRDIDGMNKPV
Assay: OPRKappa 1 Tango B-Arrestin Assay, antagonist mode (Tango OPRK1-bla U2OS cells, U50488 EC80 challenge)
Conditions: antagonist mode, Tango OPRK1-bla U2OS cells, 6 nM U50488 challenge
pIC50: −log10 of the molar value.
READOUT: pIC50

Past entries and their recorded results:
COMPOUND: COc1cc(F)c2nc(N3CCN(CC4CCOCC4)C[C@H]3C)c(-c3nc(C)no3)c(C)c2c1
pIC50: ≤ 7.00
--
COMPOUND: CCc1cc(F)c2nc(N3CCN(C(=O)[C@H](C)N(CC)CC)C[C@H]3C)c(-c3nc(C)no3)c(C)c2c1
pIC50: 8.00 to 9.00
--
COMPOUND: CCc1cc(F)c2nc(N3CCN(CC4CCOCC4)C[C@H]3C)c(-c3nc(C)no3)c(C)c2c1
pIC50: 7.00 to 8.00
--
COMPOUND: CCc1cc(F)c2nc(N3CC[C@@H](N[C@@H]4CCCOC4)[C@H](C)C3)c(-c3ccn(C)n3)c(C)c2c1
pIC50: 8.00 to 9.00
--
COMPOUND: CCc1cc(-c2ccnn2C)c2nc(N3CC[C@H](NC4CCOCC4)[C@H](F)C3)c(-c3ccn(C)n3)c(C)c2c1
pIC50: 8.00 to 9.00

Request: Param readout= pIC50; system= kappa opioid receptor (KOR) (Homo sapiens, UniProt P41145); entry= CCc1cc(F)c2nc(N3CC[C@@H](N[C@@H]4CCOC4)[C@H](F)C3)c(-c3ccn(C)n3)c(C)c2c1 ; returns value.
Result: 8.00 to 9.00

Request: Also check CCc1cc(F)c2nc(N3CCC(OCCN4CCCC4)CC3)c(-c3nc(C)no3)c(C)c2c1
Result: 7.00 to 8.00

Request: Also check CCc1cc(F)c2nc(N3CC[C@@H](N[C@@H]4CCCOC4)[C@@H](C)C3)c(-c3ccn(C)n3)c(C)c2c1
Result: > 9.00

Request: Also check CCc1cc(F)c2nc(N3CCN(C(=O)[C@@H](C(C)C)N4CCCC4)C[C@H]3C)c(-c3nc(C)no3)c(C)c2c1
Result: 8.00 to 9.00

Request: Also check CCc1cc(F)c2nc(N3CCN(C(=O)[C@H](C)N4CCCC4)C[C@H]3C)c(-c3nc(C)no3)c(C)c2c1 [Compound 191]
Result: 8.00 to 9.00

###

Reported values of IC50 for individual entries
Biological target: kappa opioid receptor (KOR) (Homo sapiens, UniProt P41145)
Experiment: OPRKappa 1 Tango B-Arrestin Assay, antagonist mode (Tango OPRK1-bla U2OS cells, U50488 EC80 challenge)
Conditions: antagonist mode, Tango OPRK1-bla U2OS cells, 6 nM U50488 challenge

Past entries and their recorded results:
LINE NOTATION: CCc1cc(-c2cc[nH]n2)c2nc(N3CCNC[C@H]3C)c(-c3nc(C)no3)c(C)c2c1
READOUT: IC50
OBSERVED VALUE: 0.01 to 0.1 µM
//
LINE NOTATION: CCc1cc(-c2cnn(CCO)c2)c2nc(N3CCNC[C@H]3C)c(-c3nc(C)no3)c(C)c2c1
READOUT: IC50
OBSERVED VALUE: ≥ 0.1 µM

Request: Param readout= IC50; system= kappa opioid receptor (KOR) (Homo sapiens, UniProt P41145); entry= CCc1cc(F)c2nc(N3CCN(C(=O)[C@H](C)N(CC)CC)C[C@H]3C)c(-c3ccn(C)n3)c(C)c2c1 ; returns value.
Result: 0.01 to 0.1 µM

Request: Also check CCc1cc(F)c2nc(N3CC[C@H](N[C@@H]4CCCOC4)[C@@H](C)C3)c(-c3ccn(C)n3)c(C)c2c1
Result: 0.001 to 0.01 µM

Request: Also check CCc1cc(-c2ccn(C)n2)c2nc(N3CCC(N[C@H]4CCOC4)CC3)c(-c3ccn(C)n3)c(C)c2c1
Result: < 0.001 µM

Request: Also check CCc1cc(F)c2nc(N3CCC(N[C@H]4CCCC(F)(F)C4)CC3)c(-c3ccn(C)n3)c(C)c2c1
Result: 0.001 to 0.01 µM

Request: Also check CCc1cc(F)c2nc(N3CCC(N[C@H]4CCOC[C@H]4F)CC3)c(-c3cc(C)n(C)n3)c(C)c2c1
Result: 0.001 to 0.01 µM

Request: Also check CCc1cc(F)c2nc(N3CC[C@H](N[C@@H]4CCOC4)[C@H](F)C3)c(-c3ccn(C)n3)c(C)c2c1
Result: 0.001 to 0.01 µM

Request: Also check CCc1cc(-c2ccnn2C)c2nc(N3CCC(N[C@@H]4CCOC[C@H]4F)CC3)c(-c3ccn(C)n3)c(C)c2c1
Result: 0.001 to 0.01 µM
